Molecular target: MMP-17CD (Homo sapiens)
Construct: MMP-17 catalytic domain (“MMP-17CD”)
Sequence (Q9ULZ9 126-295 limits assumed): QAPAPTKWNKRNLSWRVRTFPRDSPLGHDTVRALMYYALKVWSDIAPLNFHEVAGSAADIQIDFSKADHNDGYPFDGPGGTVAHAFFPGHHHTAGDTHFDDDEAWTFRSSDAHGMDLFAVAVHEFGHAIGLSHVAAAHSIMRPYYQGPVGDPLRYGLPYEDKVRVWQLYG
Test: MMP-17 catalytic domain inhibition (Biological Methods 1, 2, or 5)
Type: biochemical
Recorded IC50 for the following compounds

# annotated cases, reported IC50 shown
smiles_data=COc1cccc(CC(=O)Nc2ccc3ncn(Cc4ccc(C(=O)O)cc4)c(=O)c3c2)c1 experimental_value="> 30 µM"
smiles_data=O=C(Cc1ccc(F)cc1)Nc1ccc2ccn(Cc3ccc(C(=O)O)cc3)c(=O)c2c1 experimental_value="> 30 µM"
smiles_data=O=C(Cc1cccc(F)c1)Nc1ccc2ccn(Cc3ccc(C(=O)O)cc3)c(=O)c2c1 experimental_value="> 30 µM"

Looking up `COc1ccc(CC(=O)Nc2ccc3ccn(Cc4ccc(C(=O)O)cc4)c(=O)c3c2)cc1` , I see its IC50 listed as > 30 µM

Looking up `O=C(Cc1ccc(F)cc1)Nc1ccc2ncn(Cc3ccc(C(=O)O)cc3)c(=O)c2c1` , I see its IC50 listed as > 100 µM

====

Notes on IC50 obtained with MMP-3CD (catalytic domain of stromelysin) (Homo sapiens, UniProt P08254).
Sequence (P08254 100-272 limits assumed): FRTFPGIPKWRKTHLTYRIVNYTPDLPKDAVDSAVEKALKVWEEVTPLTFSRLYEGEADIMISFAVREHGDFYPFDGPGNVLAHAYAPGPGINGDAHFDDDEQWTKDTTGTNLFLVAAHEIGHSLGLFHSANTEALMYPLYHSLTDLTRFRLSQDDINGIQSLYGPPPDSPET

# annotated cases, reported IC50 shown
smiles_data=COc1cccc(CC(=O)Nc2cc3c(=O)n(Cc4ccc(C(=O)O)cc4)cnc3cc2F)c1 experimental_value="> 100 µM"
smiles_data=O=C(Cc1ccc(F)cc1)Nc1ccc2ncn(Cc3ccc(C(=O)O)cc3)c(=O)c2c1 experimental_value="> 100 µM"
smiles_data=O=C(Cc1cccc(F)c1)Nc1ccc2ccn(Cc3ccc(C(=O)O)cc3)c(=O)c2c1 experimental_value="> 65 µM"

// next entry
Looking up `COc1ccc(CC(=O)Nc2ccc3ccn(Cc4ccc(C(=O)O)cc4)c(=O)c3c2)cc1` , I see its IC50 listed as > 65 µM
